- System: Vibrio harveyi
- Assay Details: Effect on Vibrio harveyi BB170 planktonic growth at 2 incubated for 9 hrs under aerobic condition by spectrophotometric method
- Parameters: concentration or dose not given beside the values
- Condition Notes: in vitro
Property Name: Activity

INSERT INTO assay_data (compound, experimental_target, result) VALUES
  ('Cc1cccc2c1C(=O)OC2=C(Br)Br', 'Vibrio harveyi', 'Non-Toxic'),
  ('O=C1C=C(Br)/C(=C/Br)O1', 'Vibrio harveyi', 'Toxic'),
  ('O=C1OC(=C(Br)Br)C2CCCC12 (centres undefined)', 'Vibrio harveyi', 'Non-Toxic'),
  ('Cc1ccc2c(c1)C(=C(Br)Br)OC2=O', 'Vibrio harveyi', 'Non-Toxic');
